# Substrate: CCCCCCCCCCCCCCCC/C=C\OC[C@@H](O)COP(=O)([O-])OCC[N+](C)(C)C
# Assay overview: released choline by choline oxidase/peroxidase colorimetric assay, Michaelis-Menten fit
# Type: biochemical, Thermocrispum sp. RD004668
# Test conditions: pH 8.0, 50 °C, 1 min, 2 mM CaCl2, substrate micelles
kcat values, listed per item
Expressed in s⁻¹, but write only the number.

LyPls-PLD (lysoplasmalogen-specific phospholipase D) (Thermocrispum sp. RD004668; F211L) (protein, recombinant from pET24/lpls-pld in E. coli BL21(DE3); purified on HisTrap HP) TTRTTDNPWLDARVLNMAHAGGENEAPANTLYAFKRAVKLGANMLELDVQSTKDDQLVVIHNATVDQTTDGTGKVRDLTFEQVHELDAAYNFIPGRHAVPGEPPESYPLRGVRTGEKKPPPGYQPSDFAIPKLADVLEAFPRTPINIEIKGTSDADIPSFLHNAKLLARLLKKTGRTDFIVTSLNDLAVAKFHLLAPDIPIAPGMAGLAAYFLLGVKPMHGTVALQIPVRYQGLEIATPEFIRRAHADGYAVHVWFSGTAPDDEATYNRIIDSCADGLMPAYPALLERILDERGIERPGRPGVDPCG	21

Q: Report kcat for LyPls-PLD (lysoplasmalogen-specific phospholipase D) (Thermocrispum sp. RD004668; M71G) (protein, recombinant from pET24/lpls-pld in E. coli BL21(DE3); purified on HisTrap HP) TTRTTDNPWLDARVLNMAHAGGENEAPANTLYAFKRAVKLGANGLELDVQSTKDDQLVVIHNATVDQTTDGTGKVRDLTFEQVHELDAAYNFIPGRHAVPGEPPESYPLRGVRTGEKKPPPGYQPSDFAIPKLADVLEAFPRTPINIEIKGTSDADIPSFLHNAKLLARLLKKTGRTDFIVTSFNDLAVAKFHLLAPDIPIAPGMAGLAAYFLLGVKPMHGTVALQIPVRYQGLEIATPEFIRRAHADGYAVHVWFSGTAPDDEATYNRIIDSCADGLMPAYPALLERILDERGIERPGRPGVDPCG please.
Result: 57

Cited source for all entries: paper PMC8016129
